GI50 values, listed per item
- Tested on: RXF 393
- assay_method_text: NCI tumour cell line growth inhibition, 48 h
Calls of active or inactive are those of the source. No stated cut-off is given here; in the data, active = GI50 up to about 1.1 µM and inactive = higher.

>  <molecule>
Cc1ccc(Cn2c(C)nc3c2C(=O)c2ccccc2C3=O)cc1

>  <GI50>
11.4 µM (inactive)

$$$$
>  <molecule>
C/C=C/[C@@H]1[C@H]2C(=O)[C@]3(Cl)[C@@H](/C=C/C)[C@@H]3C(=O)[C@@]12Cl

>  <GI50>
55.3 µM (inactive)

$$$$
>  <molecule>
O=C1c2cccnc2S(=O)(=O)N1c1ccc(Oc2ccccc2)cc1

>  <GI50>
69.7 µM (inactive)

$$$$
>  <molecule>
O=C1C(C2=[N+]([O-])c3ccccc3C2=O)=[N+]([O-])c2ccccc21

>  <GI50>
31.9 µM (inactive)

$$$$
>  <molecule>
Cc1n[nH]c(=O)n1/N=C/c1ccco1

>  <GI50>
> 100 µM (inactive)

$$$$
>  <molecule>
CC(C)(C)c1cc([Si](C)(C)C)c(C#N)c([Si](C)(C)C)c1

>  <GI50>
36.6 µM (inactive)

$$$$
>  <molecule>
C=C(C1=CC(=O)C(C)(C)O1)[C@@H]1CC=C([C@@H]2CC[C@H]3[C@@]2(C)CC[C@H]2C(C)(C)C(=O)[C@H](OC(=O)CC(C)(O)CC(=O)O)C[C@]32C)[C@H](O)O1 (some centres not stated)

>  <GI50>
0.106 µM (active)

$$$$
>  <molecule>
Cc1ccc(NC(=O)C(=O)Cc2cccc[n+]2[O-])cc1C

>  <GI50>
> 100 µM (inactive)

$$$$
>  <molecule>
O=C1C[C@H](Sc2ccccc2)C2(OCCO2)[C@H]2ON3CCC[C@@H]3[C@@H]12

>  <GI50>
1.69 µM (inactive)

$$$$
>  <molecule>
COc1cc(NS(C)(=O)=O)ccc1N1Cc2c[nH]c3ccc4nc(C)cc1c4c23

>  <GI50>
32 µM (inactive)

$$$$
>  <molecule>
COC(=O)CC(NC(=O)OCc1ccccc1)C(C(=O)OCc1ccccc1)C(C)(OC)OC (configuration not stated)

>  <GI50>
16.8 µM (inactive)

$$$$
>  <molecule>
O=c1[nH]c2ccccc2c2oc(-c3ccccc3)nc12

>  <GI50>
20.4 µM (inactive)

$$$$
>  <molecule>
NC(=O)c1cc(N(CCO)CCO)c([N+](=O)[O-])cc1[N+](=O)[O-]

>  <GI50>
> 100 µM (inactive)

$$$$
>  <molecule>
CCOC(=O)COc1ccc(OCC(=O)OCC)c2c1C(=O)CCCC2=O

>  <GI50>
> 100 µM (inactive)

$$$$
>  <molecule>
O=c1c2c(sc3ccccc13)NCN(CCc1ccccc1)C2

>  <GI50>
36.3 µM (inactive)

$$$$
>  <molecule>
Cc1cccc2c1CC(C1OC(=O)c3ccccc31)C2=O (configuration not stated)

>  <GI50>
> 100 µM (inactive)

$$$$
>  <molecule>
NC(=S)N/N=C/c1nccc2ccccc12

>  <GI50>
0.257 µM (active)

$$$$
>  <molecule>
C[N+](C)(C)CC1CCCC/C1=N\O (configuration not stated)

>  <GI50>
> 100 µM (inactive)

$$$$
>  <molecule>
COc1c(C)c(C/C=C(\C)CCCCO)c(OC)c(OC)c1OC

>  <GI50>
> 100 µM (inactive)

$$$$
>  <molecule>
Cc1nnc2c3nnc(C)n3c3ccccc3n12

>  <GI50>
> 100 µM (inactive)

$$$$
>  <molecule>
Nc1ccc2c(c1)C(=O)N(OS(=O)(=O)c1ccccc1)C2=O

>  <GI50>
> 100 µM (inactive)

$$$$
>  <molecule>
COC(=O)c1ccccc1C1CN=NC12Cc1ccc3ccccc3c1C2=O (configuration not stated)

>  <GI50>
78.3 µM (inactive)

$$$$

* * *

GI50 values, listed per item
- System: RXF 393
- assay_method_text: NCI tumour cell line growth inhibition, 48 h
Active and inactive are the calls of the source. Rule as the data show it: active = GI50 up to about 1.1 µM and inactive = higher.
endpoint_label: GI50

>  <compound>
COc1cc(O)c2c(c1O)C(=O)c1cc(C)ncc1C2=O

>  <assay_result>
18.5 µM (inactive)

$$$$
>  <compound>
CC(=O)Nc1cc2c(cc1O)CC[C@@H]1[C@@H]2CC[C@]2(C)[C@@H](O)CC[C@@H]12

>  <assay_result>
43.3 µM (inactive)

$$$$
>  <compound>
C[N+]12C=CC=C1C(N1CCCC1)c1scc(-c3ccc(Br)cc3)c12 (stereo not given)

>  <assay_result>
10.2 µM (inactive)

$$$$
>  <compound>
O=[N+]([O-])c1ccc(C2=Nn3c(nnc3-c3ccc(Cl)cc3)SC2)o1

>  <assay_result>
11.5 µM (inactive)

$$$$
>  <compound>
C=C(C(=O)OC)[C@H]1CC/C(C)=C/CC[C@@](C)(O)C=CC[C@@]2(C)O[C@@H]2C1

>  <assay_result>
32.4 µM (inactive)

$$$$
>  <compound>
CCCCCCCCCCCCCC(=O)OCC(C[As](=O)(O)O)OC(=O)CCCCCCCCCCCCC (stereo not given)

>  <assay_result>
35.3 µM (inactive)

$$$$
>  <compound>
CC1=CC[C@](C)(O)[C@@]2(C)CC[C@H]3C(=C(C)C)C(=O)C[C@]3(C)C[C@H]12

>  <assay_result>
30 µM (inactive)

$$$$
>  <compound>
CC1(C)OCC(COC(=O)C=[N+]=[N-])O1 (stereo not given)

>  <assay_result>
> 100 µM (inactive)

$$$$
>  <compound>
O=C1NC(N2CCCCC2)=N/C1=C\c1ccccc1O

>  <assay_result>
> 100 µM (inactive)

$$$$
>  <compound>
CC1=CC(=O)/C(=C/NC(=S)Nc2ccccc2)C(=O)O1

>  <assay_result>
40.7 µM (inactive)

$$$$

* * *

- Test system: NCI-H23
- assay_method_text: NCI tumour cell line growth inhibition, 48 h
The source made the active and inactive calls. Cut-off read from the data, not from the text of the source: active = GI50 up to about 1.1 µM and inactive = higher. Residues, ends and D or L forms follow the SMILES beside them. *: point of attachment. Cbz = O=C(OCc1ccccc1)*

>  <molecule>
COC(=O)CC1C=CC(C)(OC)OO1 (stereo not given)

>  <GI50>
> 100 µM (inactive)

$$$$
>  <molecule>
CC(C)(c1ccc(Oc2ccc(C#N)c(C#N)c2)cc1)c1ccc(Oc2ccc(C#N)c(C#N)c2)cc1

>  <GI50>
> 10 µM (inactive)

$$$$
>  <molecule>
CCOC(=O)CCC(NC(=O)OCc1ccccc1)C(=O)NC(CCC(=O)OCC)C(=O)OCC (stereo not given) (Cbz-Glu(OEt)-Glu(OEt)-OEt; configuration not given here)

>  <GI50>
> 100 µM (inactive)

$$$$
>  <molecule>
CC(NC(=O)Cc1ccccc1)NC(=O)C(C)C(=O)Nc1ccccc1 (stereo not given)

>  <GI50>
> 100 µM (inactive)

$$$$
>  <molecule>
O=c1cc(-c2ccccc2)[nH]c2cc(Cl)cc(Cl)c12

>  <GI50>
57.7 µM (inactive)

$$$$
>  <molecule>
COC(C)(C)C1=CCC(C)CC1 (stereo not given)

>  <GI50>
> 100 µM (inactive)

$$$$
>  <molecule>
CCCC(=O)Nc1cc(/C=C/C(=O)N2CC(CCl)c3ccc([N+](=O)[O-])cc32)n(C)c1 (stereo not given)

>  <GI50>
> 100 µM (inactive)

$$$$
>  <molecule>
COc1ccc2c(c1)nc1n2C(c2c(Cl)cccc2Cl)SC1 (stereo not given)

>  <GI50>
38.4 µM (inactive)

$$$$
>  <molecule>
COc1cccc(N/C(C)=C2/CCOC2=O)c1

>  <GI50>
> 10 µM (inactive)

$$$$
>  <molecule>
Cc1cc(N2CCCCC2)nc2ccc(Cc3ccc4nc(N5CCCCC5)cc(C)c4c3)cc12

>  <GI50>
> 100 µM (inactive)

$$$$

* * *

- Test system: NCI-H23
- assay_method_text: NCI tumour cell line growth inhibition, 48 h
The source made the active and inactive calls. No stated cut-off is given here; in the data, active = GI50 up to about 1.1 µM and inactive = higher.
Labels: active, inactive

>  <compound>
COc1cc(CCNC2=CC(=O)c3cccnc3C2=O)ccc1O

>  <label_value>
active

$$$$
>  <compound>
O=C1CC2(CCNCC2)C(=O)N1N1CCCC1

>  <label_value>
inactive

$$$$
>  <compound>
O=c1[nH]nc(Cc2ccc(Cl)cc2)n1/N=C\c1ccc(/C=N/n2c(Cc3ccc(Cl)cc3)n[nH]c2=O)cc1

>  <label_value>
inactive

$$$$
>  <compound>
CCCCCCCCCCCC(=O)OCCOCCOCCOCCOCCOCc1ccccc1

>  <label_value>
inactive

$$$$
>  <compound>
CC(=O)OCCOc1cc2c([nH]c3ccccc32)c(C)c2cccc1-2

>  <label_value>
inactive

$$$$
>  <compound>
Oc1nc2cc3nc(O)c(O)nc3cc2nc1O

>  <label_value>
inactive

$$$$
>  <compound>
CC(=O)OC[C@@]12C[C@H]3C(=O)C(C)(C)C[C@H]3[C@]1(C)[C@@H](OC(C)=O)[C@]1(O)[C@H]([C@@H](OC(=O)c3ccccc3)[C@@H](C)[C@H]1OC(C)=O)[C@H]2OC(C)=O

>  <label_value>
inactive

$$$$
>  <compound>
Nc1nc(Cl)cc(NCC2(CO)CC(Cc3ccccc3)C2)n1 (centres undefined)

>  <label_value>
inactive

$$$$
>  <compound>
Cc1c(Cl)ccc2c(=O)c3cccc(CC(=O)O)c3oc12

>  <label_value>
inactive

$$$$
>  <compound>
CCOC(=O)C1=CC(C)(C(=O)OCC)Nc2c(nc(N)[nH]c2=O)N1 (centres undefined)

>  <label_value>
inactive

$$$$
>  <compound>
O=C(O)/C(=C/C(=O)c1ccc(Cl)cc1)NNc1ccc([N+](=O)[O-])cc1[N+](=O)[O-]

>  <label_value>
inactive

$$$$
>  <compound>
C#C[C@@H](CCCC)OC(=O)N[C@H](C)c1ccccc1

>  <label_value>
inactive

$$$$
>  <compound>
c1ccc2c(c1)[nH]c1nc3cc(-c4ccc5nc6c(nc5c4)[nH]c4ccccc46)ccc3nc12

>  <label_value>
inactive

$$$$
>  <compound>
CC(C)(C)CI

>  <label_value>
inactive

$$$$

Cited source: ChEMBL document CHEMBL1201862
